Quick reference: MIC of the listed items.
- Test system: Mycobacterium tuberculosis
- ASSAY PROTOCOL: Antitubercular activity against Mycobacterium tuberculosis H37Ra assessed as inhibition of bacterial growth by microplate alamar blue assay
- Type: functional
ENDPOINT LABEL: MIC (µM)

- CHEMICAL STRUCTURE: "COc1cc(-c2c3c([nH]c(=O)c2C#N)-c2ccccc2CC3)cc(OC)c1OC"
  ENDPOINT LABEL: "MIC"
  RECORDED RESULT: 20.1
- CHEMICAL STRUCTURE: "N#Cc1c(-c2cccs2)c2c([nH]c1=O)-c1ccccc1CC2"
  ENDPOINT LABEL: "MIC"
  RECORDED RESULT: 12.8
- CHEMICAL STRUCTURE: "COc1ccc(-c2c3c([nH]c(=O)c2C#N)-c2ccccc2CC3)cc1"
  ENDPOINT LABEL: "MIC"
  RECORDED RESULT: 11.9
- CHEMICAL STRUCTURE: "NNC(=O)c1ccncc1"
  ENDPOINT LABEL: "MIC"
  RECORDED RESULT: 0.875
- CHEMICAL STRUCTURE: "COc1ccc(-c2c3c([nH]c(=O)c2C#N)-c2ccccc2CC3)cc1OC"
  ENDPOINT LABEL: "MIC"
  RECORDED RESULT: 10.9
- CHEMICAL STRUCTURE: "Cc1cccc(-c2c3c([nH]c(=O)c2C#N)-c2ccccc2CC3)c1"
  ENDPOINT LABEL: "MIC"
  RECORDED RESULT: 100

###

- System: Plasmodium berghei
- ASSAY PROTOCOL: Antimalarial activity against Plasmodium berghei ANKA infected in mouse assessed as parasitemia at 48.4 microM/Kg,po measured after 96 hrs by giemsa staining analysis relative to control
- Assay type: functional
- EXPERIMENTAL SETUP: at 48.4 µmol/kg

- COMPOUND: "Cc1cccc(-c2c3c([nH]c(=O)c2C#N)-c2ccccc2CC3)c1"
  Activity: "18%"
- COMPOUND: "COc1ccc(-c2c3c([nH]c(=O)c2C#N)-c2ccccc2CC3)cc1"
  Activity: "26%"
- COMPOUND: "CCN(CC)CCCC(C)Nc1ccnc2cc(Cl)ccc12.O=P(O)(O)O.O=P(O)(O)O (stereo not drawn) [CHLOROQUINE PHOSPHATE]"
  Activity: "0%"
- COMPOUND: "COc1cc(-c2c3c([nH]c(=O)c2C#N)-c2ccccc2CC3)cc(OC)c1OC"
  Activity: "8%"
- COMPOUND: "N#Cc1c(-c2ccc(Cl)cc2Cl)c2c([nH]c1=O)-c1ccccc1CC2"
  Activity: "32%"
- COMPOUND: "COc1ccc(-c2c3c([nH]c(=O)c2C#N)-c2ccccc2CC3)cc1O"
  Activity: "33%"
- COMPOUND: "CC(=O)N1CCC(C(=O)NCc2ccc3c(c2)-c2[nH]c(=O)c(C#N)c(-c4cc(Cl)ccc4Cl)c2CC3)CC1"
  Activity: "3%"
- COMPOUND: "COc1ccc(-c2c3c([nH]c(=O)c2C#N)-c2ccccc2CC3)cc1OC"
  Activity: "38%"
- COMPOUND: "CCc1nc(N)nc(N)c1-c1ccc(Cl)cc1 [PYRIMETHAMINE]"
  Activity: "0%"
- COMPOUND: "N#Cc1c(O)nc2c(c1-c1cccc([N+](=O)[O-])c1)CCc1ccccc1-2"
  Activity: "28%"
- COMPOUND: "N#Cc1c(-c2ccccc2[N+](=O)[O-])c2c([nH]c1=O)-c1ccccc1CC2"
  Activity: "17%"
- COMPOUND: "COc1cccc(-c2c3c([nH]c(=O)c2C#N)-c2ccccc2CC3)c1"
  Activity: "11%"
- COMPOUND: "COc1ccc(OC)c(-c2c3c([nH]c(=O)c2C#N)-c2ccccc2CC3)c1"
  Activity: "5%"

Every entry's value here was drawn from ChEMBL document CHEMBL5620375.
